# experimental-details: gradient 5% acetonitrile 3 min, to 50% in 2 min, to 85% in 15 min, held 3 min, 100 µL/min
# measurement-setup: column: Zorbax Extend-C18 2.1 x 50 mm; eluents: water / acetonitrile, 0.1% formic acid
parameter: RP-LC retention time (s)

compound="COc1ccc(N2CC(c3noc(-c4ccc(C(C)(C)C)cc4)n3)CC2=O)cc1 (stereo not given)" number=1200
compound=Cc1ccc2nc3c(c(C(=O)NC4CCCC4)c2c1)CCC3 number=690
compound="Cc1nnsc1C(=O)N1CC2CC(C1)c1cccc(=O)n1C2 (stereo not given)" number=551
compound=CCn1cc(C(=O)Nc2cccc(F)c2)c2cccnc21 number=892
compound="COc1ccc(-c2cc3n(n2)C(NCc2cccs2)CNC3=O)cc1 (stereo not given)" number=825

(a) CC1=C(c2cccc(Cl)c2)S(=O)(=O)N=C1N1CCCN(C(=O)C2CCC2)CC1
(b) Cc1cc(N2CCN(C)CC2)nc2ccc(NC(=O)NC3CCCC3)cc12
Query block: When a and b are compared, which has the higher number for RP-LC retention time? Field: selected label. Fill in the label of the entry you choose.
Result block: a

###

# experimental-details: gradient 5% acetonitrile 3 min, to 50% in 2 min, to 85% in 15 min, held 3 min, 100 µL/min
# measurement-setup: column: Zorbax Extend-C18 2.1 x 50 mm; eluents: water / acetonitrile, 0.1% formic acid
parameter: RP-LC retention time (s)

Examples with their reported RP-LC retention time follow.
molecule=O=S(=O)(c1ccccc1)N1CC(n2cnnc2-c2ccccc2)C1 number=641
molecule=CCCc1cc(N2CCN(C(=O)c3ccc(N(C)C)cc3)CC2)nc2nncn12 number=612
molecule=O=C(O)CCC(=O)Nc1cccc(C(=O)O)c1 number=555
molecule=COCC(=O)N1CCc2c(c(-c3nc(C4CC4)no3)nn2C)C1 number=653
molecule=Cn1nccc1C(=O)Nc1ccsc1-c1nc(-c2ccc(F)cc2)no1 number=1260
molecule="CC1(C)CC(=O)C2=C(C1)N(CC1CCCO1)C(=O)C2(NC(=O)c1cccnc1)C(F)(F)F (stereo unspecified)" number=719
molecule=Cc1ccsc1CN1CC(Oc2ccccc2C(=O)NC2CC2)C1 number=615
molecule=Cc1nncn1C1CN(C(=O)Nc2ccc(Cl)cc2C(F)(F)F)C1 number=662

(I) O=C(NCCCN1CCCC1=O)C(=O)Nc1nccs1
(II) O=C(Cn1cccc(-c2nc(-c3ccc(Cl)cc3)no2)c1=O)NC1CCCC1
Query block: Which entry has a larger number for RP-LC retention time, I or II ? In your reply, give the label of the chosen option.
Result block: II

(I) CCOC(=O)c1c(CN2CCOCC2)n(C)c2cc(-c3cccnc3)c(O)cc12
(II) COc1ccccc1NC(=O)N1CCN(Cc2nc3cc(Cl)ccc3o2)CC1
Query block: Short answer wanted: higher RP-LC retention time, I or II ? Bench note: the answer is the label of the chosen record.
Result block: II
(II: 771 s, I: 535 s)

(a) Cc1ncsc1CN1CCn2c(nnc2[C@@H]2C[C@@H](O)CN2Cc2cccnc2)C1
(b) CCc1noc(NC(C)=O)c1-c1ccc(C)c(S(=O)(=O)NC2CCC(C)CC2)c1 (stereo unspecified)
Query block: Field: lower recorded RP-LC retention time (choose a or b ) Your answer should be the label of the entry you select.
Result block: a
(a: 544 s, b: 937 s)

###

# experimental-details: gradient 5% acetonitrile 3 min, to 50% in 2 min, to 85% in 15 min, held 3 min, 100 µL/min
# measurement-setup: column: Zorbax Extend-C18 2.1 x 50 mm; eluents: water / acetonitrile, 0.1% formic acid
parameter: RP-LC retention time (s)

compound="COc1ccc(Cl)cc1NC(=O)C1CCCN1S(=O)(=O)c1cc2c(cc1C)NC(=O)C(C)O2 (centres undefined)" number=909
compound=CCCCn1nc2ccc(S(=O)(=O)N3CCCCCC3)cn2c1=O number=957
compound=CN(C)c1nc2cc(C(=O)NCc3ccncc3)sc2n1-c1ccccc1 number=1130
compound="COc1ccc(C2Cn3nnc(-c4nc(-c5ccccc5Cl)no4)c3CO2)cc1 (centres undefined)" number=1150
compound="C[C@@H]1CCC2[C@](C)(CO)[C@@H](O)CC[C@]2(C)[C@]12CCC(CO)(CCO)O2 (some centres undefined)" number=829
compound=O=S(=O)(Nc1ccc(F)cc1F)c1c[nH]c2ncccc12 number=722
compound=CC1(C)CC(=O)c2cc3c(N)c(C(=O)Nc4ccccc4[N+](=O)[O-])sc3nc2C1 number=1100
compound=COCCN1C(=O)CCc2cc(NC(=O)Cc3ccccc3C)ccc21 number=766
compound="COc1ccc(S(=O)(=O)N2CCCC(C(=O)Nc3cccc(SC)c3)C2)cc1C (centres undefined)" number=1030

###

# experimental-details: gradient 5% acetonitrile 3 min, to 50% in 2 min, to 85% in 15 min, held 3 min, 100 µL/min
# measurement-setup: column: Zorbax Extend-C18 2.1 x 50 mm; eluents: water / acetonitrile, 0.1% formic acid
parameter: RP-LC retention time (s)

molecule="O=C(Nc1ccc(F)cc1Cl)C1CCc2nc(N3CCOCC3)ncc2C1 (stereo not given)" number=793

(a) COc1ccc(CCNC(=O)CSC2CCc3ccccc3NC2=O)cc1OC (stereo not given)
(b) Cc1ccc(Cl)cc1NS(=O)(=O)c1ccc2onc(C(=O)N3CCCC3)c2c1
Query block: Pick one, a or b : lowest reported RP-LC retention time. Kindly give the label for the entry you pick.
Result block: a

###

# experimental-details: gradient 5% acetonitrile 3 min, to 50% in 2 min, to 85% in 15 min, held 3 min, 100 µL/min
# measurement-setup: column: Zorbax Extend-C18 2.1 x 50 mm; eluents: water / acetonitrile, 0.1% formic acid
parameter: RP-LC retention time (s)

Examples from the recorded data:
compound="COCCNC(=O)C1c2cc(OC)c(OC)cc2C(=O)N(C)C1c1ccc(OC)cc1 (centres undefined)" number=661
compound=Cc1sc(-c2cc(C(F)(F)F)on2)cc1S(=O)(=O)N1CCOCC1 number=1040
compound=O=S(=O)(NC1CCCC1)c1ccc(-c2cc(C(F)(F)F)on2)o1 number=1060
compound="CC(C)(C)CC(=O)N1CCC(Oc2nccnc2N2CCc3ccccc32)C1 (centres undefined)" number=1060
compound="CS(=O)(=O)N1CCN(C(=O)C2CCCN(c3ccc(-c4ccc(F)cc4)nn3)C2)CC1 (centres undefined)" number=611
compound=c1nn2cnnc2cc1N1CCN(Cc2csc3c2CCCC3)CC1 number=609
compound=Cc1nn2c(CNS(=O)(=O)c3cc(F)cc(F)c3)c(-c3ccccc3)nc2s1 number=905
compound=C/C(=N\NC(N)=O)c1ccc(Cl)c(-n2cccc2)c1 number=855

(A) Cc1ccc2nc(-c3ccccc3)c(Nc3ccc4c(c3)OCCO4)n2c1
(B) Cc1nc(-c2cc(S(=O)(=O)NCc3ccc(OC(C)C)cc3)c(C)s2)sc1C
Query block: Compare A and B by numeric RP-LC retention time and name the larger one. Your answer should be the label of the entry you select.
Result block: B

(1) C[C@@H](NC(=O)c1cccc(Br)c1)C(=O)NCc1cscn1
(2) CCc1nn2c(CNC(=O)c3cccc(Br)c3)c(-c3ccccc3)nc2s1
Query block: Lowest RP-LC retention time? choose 1 or 2 Lab note: record the label of whichever item you select.
Result block: 1

(I) Cc1cccc2c(C(=O)N3CCCC3)cc(N(C)C)nc12
(II) CCn1c(=O)c(C)nc2cc(-c3noc(Cc4ccc(OC)c(OC)c4)n3)ccc21
Query block: Looking at I and II , which one comes out lower in RP-LC retention time terms? Refer to your chosen entry by its label in the reply.
Result block: I
(I: 605 s, II: 888 s)

(a) CCOC(=O)CNC(=O)Nc1ccc(CCc2nc3ccccc3[nH]2)cc1
(b) O=C(NCc1ccc(F)c(Cl)c1)C1CCCN(c2nccnc2Sc2ccccc2)C1 (centres undefined)
Query block: From the recorded data, which exceeds the other in RP-LC retention time: a or b ? Let me know the label of the one you choose.
Result block: b
(b: 1100 s, a: 606 s)

(P) O=C1CCCN1CCCN1C(=O)[C@H]2CN(Cc3ccc(F)cc3Cl)C[C@H]2C1=O
(Q) O=c1c2cc(-c3ccc(F)cc3)nn2cnn1Cc1nc(-c2ccc(Cl)cc2)no1
Query block: Could you tell me which of P and Q has the lower RP-LC retention time reading? Bench note: the answer is the label of the chosen record.
Result block: P
(P: 658 s, Q: 1190 s)

(I) Cc1ccc(S(=O)(=O)N2CC3CN(C(=O)NCc4ccco4)CC(C2)O3)cc1
(II) O=S(=O)(Nc1ccc(-c2noc(-c3ccc(Cl)cc3)n2)cc1)c1cccs1
Query block: // which entry reports the smaller RP-LC retention time, I or II ? # reply format: chosen label
Result block: I

(A) CC1CN(C2CCCCC2)c2nc3c(c(=O)n(CCN4CCCCC4)c(=O)n3C)n2C1 (centres undefined)
(B) COc1ccc(OC)c(NC(=O)Cn2cnc3c(sc4nc(-c5ccccc5)ccc43)c2=O)c1
Query block: # min-compare on RP-LC retention time between A and B Please respond with the label that marks your chosen entry.
Result block: A

(P) O=C(CSc1ccc(NC(=O)c2cccs2)nn1)Nc1ccccc1C(F)(F)F
(Q) CN1CCC(NC(=O)c2n[nH]c3c2CN(C(=O)c2ccccc2)CC3)CC1
Query block: Given P and Q , report the one with the higher recorded RP-LC retention time. Pick one and reply with its label.
Result block: P
(P: 842 s, Q: 568 s)
